assay.text: amyloid nucleation score (Sup35N fusion, yeast selection) (log enrichment); library NNK3; higher = more nucleation; inactive = no reads after selection;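 also: zero at mode of non-aggregating sequences after 7 days selection at 30°C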
test.readout: amyloid nucleation score

INSERT INTO measurements (residue_codes, result) VALUES
  ('AVNCESSCCECYGTFMDKPV', 'inactive'),
  ('MLSLSLYKLFLRWKRTSSHD', 0.904),
  ('HSRAVLTLLW', 'inactive'),
  ('NQCPIRYLWL', 1.43),
  ('TMVLIICDN', 'inactive'),
  ('FNVLMGTSYFAISEIASVPA', 'inactive'),
  ('MCKMLFSFLCLHKYCWVNVL', 'inactive'),
  ('VGSAGVSVFVWRVCRFCEGN', -0.434),
  ('MTSFIFDVFCSCSCLYQRPL', 'inactive'),
  ('LYGAWSNIPLYMFSFHFMYR', 'inactive'),
  ('RSCCLQPT', 'inactive'),
  ('LLLVWRLKVSGGLDSNRTGV', 1.05),
  ('TMVQECHYARSVSLYYNANA', 'inactive'),
  ('PFGPHYNPTM', 'inactive'),
  ('GASNMFHDPELSG', 'inactive'),
  ('GVSISQPTILQWSTVRTSID', 0.04),
  ('MWLKPCRGKIKMRGYFSLNG', 'inactive');
